Every entry's value here was drawn from paper PMC8829947.

System: E. coli expressing blaNDM-1
Experiment: Meropenem rescue concentration, antimicrobial susceptibility test
Assay type: cell-based, Escherichia coli
Conditions: rescue concentration at meropenem 2 μg/mL, MHB

{"COMPOUND": "NC(=O)C[C@H](NC[C@H](NC[C@H](N)C(=O)O)C(=O)O)C(=O)O", "TARGET_SYSTEM": "E. coli expressing blaNDM-1", "RC in MHB, NDM-1 / µg/mL": 16}
{"COMPOUND": "N[C@@H](CN[C@@H](CN[C@@H](CC(=O)O)C(=O)O)C(=O)O)CSCCO", "TARGET_SYSTEM": "E. coli expressing blaNDM-1", "RC in MHB, NDM-1 / µg/mL": 64}
{"COMPOUND": "N[C@@H](CN[C@@H](CNC(CS)C(=O)O)C(=O)O)C(=O)O (stereo in doubt) [Compound 11]", "TARGET_SYSTEM": "E. coli expressing blaNDM-1", "RC in MHB, NDM-1 / µg/mL": 32}
{"COMPOUND": "N[C@@H](CN[C@@H](CN[C@@H](Cc1ccc(O)cc1)C(=O)O)C(=O)O)C(=O)O", "TARGET_SYSTEM": "E. coli expressing blaNDM-1", "RC in MHB, NDM-1 / µg/mL": 16}

----------
Target: IMP-7
Assay: In vitro enzyme inhibition assay, purified recombinant IMP-7
Settings: read-out: IC50 IMP-7 - Zn; Zn2+-depleted (Chelex-100-treated) buffer

{"COMPOUND": "N[C@@H](CN[C@@H](CN[C@@H](Cc1c[nH]cn1)C(=O)O)C(=O)O)C(=O)O [Compound 10]", "TARGET_SYSTEM": "IMP-7", "IC50": "> 500 µM"}
{"COMPOUND": "CC(C)(S)C(NC[C@H](NC[C@H](N)C(=O)O)C(=O)O)C(=O)O (stereo in doubt) [Compound 14]", "TARGET_SYSTEM": "IMP-7", "IC50": "> 500 µM"}
{"COMPOUND": "N[C@@H](CN[C@@H](CN[C@@H](CC(=O)O)C(=O)O)C(=O)O)CSc1ccccc1 [Compound 4]", "TARGET_SYSTEM": "IMP-7", "IC50": "32 µM"}
{"COMPOUND": "CC(C)(S)C(NC[C@H](NC[C@H](N)C(=O)O)C(=O)O)C(=O)O (stereo in doubt) [Compound 15]", "TARGET_SYSTEM": "IMP-7", "IC50": "> 500 µM"}
{"COMPOUND": "N[C@@H](CN[C@@H](CNC(CS)C(=O)O)C(=O)O)C(=O)O (stereo in doubt) [Compound 11]", "TARGET_SYSTEM": "IMP-7", "IC50": "328 µM"}
{"COMPOUND": "N[C@@H](CN[C@@H](CN[C@@H](CC(=O)O)C(=O)O)C(=O)O)CSc1ccc(O)cc1 [Compound 6]", "TARGET_SYSTEM": "IMP-7", "IC50": "> 500 µM"}

----------
Target: NDM-1 (Klebsiella pneumoniae, UniProt C7C422)
Sequence (C7C422 29-270, looked up, species assumed): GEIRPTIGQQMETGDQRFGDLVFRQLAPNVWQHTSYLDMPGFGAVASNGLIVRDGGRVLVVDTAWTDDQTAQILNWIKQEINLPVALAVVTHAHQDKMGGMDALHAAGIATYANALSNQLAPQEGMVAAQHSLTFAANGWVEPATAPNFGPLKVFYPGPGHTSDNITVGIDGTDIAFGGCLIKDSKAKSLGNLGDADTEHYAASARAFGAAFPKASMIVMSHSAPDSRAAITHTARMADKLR
Test: In vitro enzyme inhibition assay, purified recombinant NDM-1
Type: biochemical
Conditions: IC50 NDM-1 + Zn, Zn2+-supplemented (10 μM) buffer
Entries and their measured IC50 follow.
READOUT_LABEL: IC50 (µM)

{"COMPOUND": "NCC(=O)N[C@@H](CN[C@@H](CN[C@@H](CC(=O)O)C(=O)O)C(=O)O)C(=O)O [Compound 1]", "TARGET_SYSTEM": "NDM-1 (Klebsiella pneumoniae, UniProt C7C422)", "READOUT_LABEL": "IC50", "CENSOR_SYMBOL": ">", "OBSERVED_VALUE": 100}
{"COMPOUND": "N[C@@H](CN[C@@H](CN[C@@H](Cc1cccs1)C(=O)O)C(=O)O)C(=O)O [Compound 23]", "TARGET_SYSTEM": "NDM-1 (Klebsiella pneumoniae, UniProt C7C422)", "READOUT_LABEL": "IC50", "CENSOR_SYMBOL": "=", "OBSERVED_VALUE": 42.2}
{"COMPOUND": "NC(=O)C[C@H](NC[C@H](NC[C@H](N)C(=O)O)C(=O)O)C(=O)O [Compound 16]", "TARGET_SYSTEM": "NDM-1 (Klebsiella pneumoniae, UniProt C7C422)", "READOUT_LABEL": "IC50", "CENSOR_SYMBOL": "=", "OBSERVED_VALUE": 18.3}
{"COMPOUND": "CC(C)(S)C(NC[C@H](NC[C@H](N)C(=O)O)C(=O)O)C(=O)O (stereo in doubt) [Compound 14]", "TARGET_SYSTEM": "NDM-1 (Klebsiella pneumoniae, UniProt C7C422)", "READOUT_LABEL": "IC50", "CENSOR_SYMBOL": "=", "OBSERVED_VALUE": 112}
{"COMPOUND": "N[C@@H](CN[C@@H](CNC(CS)C(=O)O)C(=O)O)C(=O)O (stereo in doubt) [Compound 11]", "TARGET_SYSTEM": "NDM-1 (Klebsiella pneumoniae, UniProt C7C422)", "READOUT_LABEL": "IC50", "CENSOR_SYMBOL": "=", "OBSERVED_VALUE": 15.6}
{"COMPOUND": "CN[C@@H](CN[C@@H](CN[C@@H](CC(=O)O)C(=O)O)C(=O)O)C(=O)O [Compound 3]", "TARGET_SYSTEM": "NDM-1 (Klebsiella pneumoniae, UniProt C7C422)", "READOUT_LABEL": "IC50", "CENSOR_SYMBOL": "=", "OBSERVED_VALUE": 95.3}
{"COMPOUND": "CC(C)(S)C(NC[C@H](NC[C@H](N)C(=O)O)C(=O)O)C(=O)O (stereo in doubt) [Compound 15]", "TARGET_SYSTEM": "NDM-1 (Klebsiella pneumoniae, UniProt C7C422)", "READOUT_LABEL": "IC50", "CENSOR_SYMBOL": "=", "OBSERVED_VALUE": 56.1}
